system_name: rMAO-B (Rattus norvegicus)
Construct: using a suspension of crude rat brain mitochondria as enzyme source; from tissue; host or cells: rat brain (crude mitochondrial suspension)
Sequence (P19643 whole entry): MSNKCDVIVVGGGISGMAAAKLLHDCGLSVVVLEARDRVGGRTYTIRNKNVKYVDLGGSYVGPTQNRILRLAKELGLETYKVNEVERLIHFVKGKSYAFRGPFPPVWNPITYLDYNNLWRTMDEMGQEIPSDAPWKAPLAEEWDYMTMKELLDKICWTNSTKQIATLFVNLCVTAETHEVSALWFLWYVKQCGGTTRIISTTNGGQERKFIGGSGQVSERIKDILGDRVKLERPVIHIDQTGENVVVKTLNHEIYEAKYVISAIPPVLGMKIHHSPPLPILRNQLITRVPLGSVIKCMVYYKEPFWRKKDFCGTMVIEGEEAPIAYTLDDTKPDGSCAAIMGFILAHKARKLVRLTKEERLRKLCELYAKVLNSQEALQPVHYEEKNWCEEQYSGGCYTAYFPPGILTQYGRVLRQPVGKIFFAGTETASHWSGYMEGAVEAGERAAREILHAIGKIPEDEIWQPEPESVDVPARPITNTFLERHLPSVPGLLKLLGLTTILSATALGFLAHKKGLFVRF
run_description: Inhibition of rMAO-B in crude rat brain mitochondria (4-DMAPEA substrate, HPLC-ED)
Assay type: biochemical
condition_description: crude rat brain mitochondria; substrate 4-DMAPEA 2.5 µM
measurement_name: IC50

COc1ccc2cc(C(=O)/C=C/c3cccc(O)c3)c(=O)oc2c1; 0.76 µM
COc1ccc2cc(C(=O)/C=C/c3ccc(O)c(OC)c3)c(=O)oc2c1; > 10 µM
COc1ccc2cc(C(=O)/C=C/c3ccccc3O)c(=O)oc2c1; > 10 µM

Lookup: Requested read-out: IC50. Entry: COc1ccc(OC)c(/C=C/C(=O)c2cc3ccc(OC)cc3oc2=O)c1
Found: > 10 µM
